system: basal ERK1/2 phosphorylation; experiment: Cellular ERK 1/2 phosphorylation assay in Malme-3M cells; assay type: cell-based; settings: Homo sapiens, 1 hour incubation, pERK signal normalized to total ERK, read-out: IC50, inhibition of basal ERK1/2 phosphorylation
Each entry below carries its recorded IC50.

>  <compound>
CCCS(=O)(=O)Nc1ccc(F)c(NC(=O)Nc2cc(N)ncn2)c1F [Example 2]

>  <IC50>
~438 nM

$$$$
>  <compound>
CCCS(=O)(=O)Nc1ccc(F)c(NC(=O)Nc2cc(NC)ncn2)c1Cl [Example 8]

>  <IC50>
~153 nM

$$$$

* * *

target: V600E full-length B-Raf (Homo sapiens, UniProt P15056, V600E); construct: 1 μM FSBA-MEK and 20 nM V600E full-length B-Raf; assay: B-Raf IC50 assay (incorporation of radio labeled phosphate from [γ-33P]ATP into FSBA-modified wild-type MEK); conditions: Example A assay; 4 μM ATP, 20 nM V600E full-length B-Raf, 60-minute incubation at 22° C.; read-out: BRAF V600E IC50
Sequence (P15056 whole entry V600E): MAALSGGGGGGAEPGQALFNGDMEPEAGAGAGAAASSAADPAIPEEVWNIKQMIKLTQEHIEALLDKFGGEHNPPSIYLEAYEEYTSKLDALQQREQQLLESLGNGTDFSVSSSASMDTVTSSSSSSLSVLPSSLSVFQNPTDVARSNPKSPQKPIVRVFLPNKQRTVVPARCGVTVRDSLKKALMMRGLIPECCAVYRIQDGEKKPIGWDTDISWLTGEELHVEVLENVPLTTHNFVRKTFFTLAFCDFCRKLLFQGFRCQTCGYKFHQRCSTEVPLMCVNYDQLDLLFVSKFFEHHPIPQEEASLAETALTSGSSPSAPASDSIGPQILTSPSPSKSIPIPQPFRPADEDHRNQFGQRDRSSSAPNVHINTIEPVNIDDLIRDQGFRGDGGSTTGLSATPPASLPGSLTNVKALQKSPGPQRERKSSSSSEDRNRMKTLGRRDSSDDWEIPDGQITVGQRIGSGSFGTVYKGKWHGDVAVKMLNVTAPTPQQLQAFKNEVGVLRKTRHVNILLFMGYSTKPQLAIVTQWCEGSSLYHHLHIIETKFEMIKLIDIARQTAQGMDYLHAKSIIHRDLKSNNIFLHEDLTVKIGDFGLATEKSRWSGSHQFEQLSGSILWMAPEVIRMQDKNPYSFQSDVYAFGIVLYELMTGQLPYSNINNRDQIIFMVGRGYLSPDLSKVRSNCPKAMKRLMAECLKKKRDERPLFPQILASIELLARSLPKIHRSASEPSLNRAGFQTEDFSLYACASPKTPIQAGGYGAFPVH
pIC50: −log10 of the molar value.
Each entry below carries its recorded pIC50.
attribute.measured: pIC50

>  <compound>
CCCS(=O)(=O)Nc1ccc(F)c(NC(=O)N(C)c2cc(NC(C)C)ncn2)c1F

>  <reported>
6.88

$$$$
>  <compound>
CCCS(=O)(=O)Nc1ccc(F)c(NC(=O)Nc2cc(NCC)ncn2)c1F

>  <reported>
7.55

$$$$
>  <compound>
CCCS(=O)(=O)Nc1ccc(F)c(NC(=O)Nc2cc(NC(C)C)ncn2)c1F

>  <reported>
6.78

$$$$
>  <compound>
CCCS(=O)(=O)Nc1ccc(F)c(NC(=O)Nc2cc(NCCN3CCOCC3)ncn2)c1F

>  <reported>
6.27

$$$$
>  <compound>
CCCS(=O)(=O)Nc1ccc(F)c(NC(=O)N(C)c2ccncn2)c1F

>  <reported>
5.91

$$$$
>  <compound>
CCCS(=O)(=O)Nc1ccc(F)c(NC(=O)N(C)c2cc(NCCO)ncn2)c1F

>  <reported>
6.92

$$$$
>  <compound>
CCCS(=O)(=O)Nc1ccc(Cl)c(NC(=O)Nc2cc(NC)ncn2)c1F

>  <reported>
8.05

$$$$
>  <compound>
CCCS(=O)(=O)Nc1ccc(F)c(NC(=O)Nc2ccncn2)c1F

>  <reported>
5.86

$$$$
>  <compound>
CCCS(=O)(=O)Nc1ccc(F)c(NC(=O)Nc2ncnc(NC)n2)c1F

>  <reported>
6.63

$$$$
>  <compound>
CCCS(=O)(=O)Nc1ccc(F)c(NC(=O)N(C)c2cc(NC)ncn2)c1F

>  <reported>
7.07

$$$$
>  <compound>
CCCS(=O)(=O)Nc1ccc(F)c(NC(=O)Nc2cc(NCCO)ncn2)c1F

>  <reported>
7.20

$$$$
>  <compound>
CCCS(=O)(=O)Nc1ccc(F)c(NC(=O)Nc2ncncc2-c2ccc(Cl)cc2)c1F

>  <reported>
6.54

$$$$
>  <compound>
CCCS(=O)(=O)Nc1ccc(F)c(NC(=O)N(C)c2cc(NC3CCC3)ncn2)c1F

>  <reported>
7.08

$$$$
>  <compound>
CCCS(=O)(=O)Nc1ccc(Cl)c(NC(=O)Nc2cc(NCc3ccccc3)ncn2)c1F

>  <reported>
7.72

$$$$
>  <compound>
CCCS(=O)(=O)Nc1ccc(F)c(NC(=O)N(C)c2cc(NCCN3CCOCC3)ncn2)c1F

>  <reported>
6.21

$$$$
>  <compound>
CCCS(=O)(=O)Nc1ccc(F)c(NC(=O)N(C)c2cc(NC3CC3)ncn2)c1F

>  <reported>
7.66

$$$$
>  <compound>
CCCS(=O)(=O)Nc1ccc(F)c(NC(=O)Nc2ncncn2)c1F

>  <reported>
6.91

$$$$
>  <compound>
CCCS(=O)(=O)Nc1ccc(F)c(NC(=O)N(C)c2cc(Nc3ccn(C)n3)ncn2)c1F

>  <reported>
7.23

$$$$
>  <compound>
CCCS(=O)(=O)Nc1ccc(F)c(NC(=O)N(C)c2cc(NCC)ncn2)c1F

>  <reported>
7.59

$$$$
>  <compound>
CCCS(=O)(=O)Nc1ccc(F)c(NC(=O)Nc2cc(NC)ncn2)c1Cl

>  <reported>
7.70

$$$$
>  <compound>
CCCS(=O)(=O)Nc1ccc(F)c(NC(=O)Nc2cc(NC)ncn2)c1F

>  <reported>
7.51

$$$$
>  <compound>
CCCS(=O)(=O)Nc1ccc(F)c(NC(=O)N(C)c2cc(NC3CCOC3)ncn2)c1F (centres unmarked)

>  <reported>
6.55

$$$$
>  <compound>
CCCS(=O)(=O)Nc1ccc(F)c(NC(=O)Nc2ncnc(Nc3ccc(F)cc3)n2)c1F

>  <reported>
7.87

$$$$
>  <compound>
CCCS(=O)(=O)Nc1ccc(F)c(NC(=O)N(C)c2cc(NN)ncn2)c1F

>  <reported>
7.48

$$$$
>  <compound>
CCCS(=O)(=O)Nc1ccc(F)c(NC(=O)Nc2cc(N)ncn2)c1F

>  <reported>
6.85

$$$$
>  <compound>
CCCS(=O)(=O)Nc1ccc(F)c(NC(=O)N(C)c2cc(N)ncn2)c1F

>  <reported>
7.08

$$$$

Data origin: patent US20120214811A1
